# tgt: CIB1 and αIIb interaction (CIB1-GST : F-αIIb peptide) (Homo sapiens, UniProt Q99828)
# Construct: made in house; host or cells: BL-21 plus RIL cells (E. coli)
# assay.method.text: FP assay, 1536-well qHTS format (primary and confirmatory screen)
# Format: binding
# run.conditions: qHTS primary screen hits, Table S2; negative = inhibition
property.label: Efficacy (%)
Give the value, in units of %, as a plain number.

INSERT INTO assay_data (molecule, property_label, measured_value) VALUES
  ('CC(=O)Nc1sc2c(c1-c1nc3ccccc3o1)CCN(C(C)C)C2.O=C(O)C(F)(F)F [NCGC00184832-01]', 'Efficacy (%)', -78),
  ('COc1cc2c(cc1OC)CN(CCc1ccc(NC(=O)c3cc(OC)c(OC)cc3NC(=O)c3cnc4ccccc4c3)cc1)CC2 [NCGC00346448-01]', 'Efficacy (%)', -30),
  ('Nc1cc(-c2ccncc2)c[nH]c1=O [NCGC00016896-06]', 'Efficacy (%)', -48),
  ('O.O.O=c1c(O)c(-c2ccc(O)c(O)c2)oc2cc(O)cc(O)c12 [NCGC00015870-27]', 'Efficacy (%)', -30);

Sample CN(C)CCN1C(=O)c2cccc3cc(N)cc(c23)C1=O [NCGC00346513-01] — what was its Efficacy (%)?
-32

* * *

# tgt: CIB1 and αIIb interaction (CIB1-GST : F-αIIb peptide) (Homo sapiens, UniProt Q99828)
# Construct: made in house; host or cells: BL-21 plus RIL cells (E. coli)
# Sequence (Q99828 1-191): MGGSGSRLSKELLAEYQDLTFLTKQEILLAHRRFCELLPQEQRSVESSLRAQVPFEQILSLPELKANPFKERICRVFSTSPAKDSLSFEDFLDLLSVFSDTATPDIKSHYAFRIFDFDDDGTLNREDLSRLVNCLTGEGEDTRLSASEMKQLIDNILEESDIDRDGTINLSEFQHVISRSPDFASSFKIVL
# assay.method.text: FP assay, 1536-well qHTS format (primary and confirmatory screen)
# Assay type: binding
# run.conditions: qHTS primary screen hits, Table S2; read-out: IC50
# IC50 listing for each entry below

Any idea what IC50 was measured for O=C(c1cc(O)c(O)c(O)c1)c1ccc(O)c(O)c1O [NCGC00249050-02] ?
39.8 µM

Same lookup for CN(C)c1ccc(C(=C2C=CC(=[N+](C)C)C=C2)c2ccc(N(C)C)cc2)cc1.[Cl-] [NCGC00091112-09] , please.
56.2 µM

Proceed to Cc1ccc(Cl)cc1NC(=O)c1nc[nH]c1C(=O)Nc1nc2ccccc2[nH]1 [NCGC00244259-01]
20 µM

Entry CCc1nnc(Nc2ncnc3scc(-c4cccc(S(C)(=O)=O)c4)c23)s1.O=C(O)C(F)(F)F [NCGC00188733-01] please
50.1 µM

* * *

# tgt: GST-CIB1 : F-scrambled peptide (Homo sapiens, UniProt Q99828)
# Construct: made in house; host or cells: BL-21 plus RIL cells (E. coli)
# assay.method.text: FP scrambled-peptide counter screen, 1536-well format
# Type: binding
# run.conditions: scrambled-peptide counterscreen; read-out: COUNTERSCREEN IC50
Property: IC50; scope: individual compounds
Respond numerically; units are µM and should not be typed.

INSERT INTO measurements (compound, measured_value) VALUES
  ('O=c1sc2ccccc2c(O)c1C1CC(c2ccc(-c3ccc(Br)cc3)cc2)Cc2ccccc21 (stereo not shown)', 79.4);

GET /values?readout=IC50&system=GST-CIB1 : F-scrambled peptide (Homo sapiens, UniProt Q99828)&item= `CC(C)=CCC[C@]1(C)C=Cc2c(O)c3c(c(CC=C(C)C)c2O1)O[C@]12C(=C[C@@H]4CC1C(C)(C)O[C@@]2(C/C=C(/C)C(=O)O)C4=O)C3=O`
12.6

Same again, this time with `COc1cc(C(=O)NS(=O)(=O)c2ccccc2C)ccc1Cc1cn(C)c2ccc(NC(=O)OC3CCCC3)cc12`
50.1

* * *

Reported CONFIRMATORY SCREEN Curve Class values for a set of compounds
# tgt: CIB1 and αIIb interaction (CIB1-GST : F-αIIb peptide) (Homo sapiens, UniProt Q99828)
# Construct: made in house; host or cells: BL-21 plus RIL cells (E. coli)
# Sequence (Q99828 1-191): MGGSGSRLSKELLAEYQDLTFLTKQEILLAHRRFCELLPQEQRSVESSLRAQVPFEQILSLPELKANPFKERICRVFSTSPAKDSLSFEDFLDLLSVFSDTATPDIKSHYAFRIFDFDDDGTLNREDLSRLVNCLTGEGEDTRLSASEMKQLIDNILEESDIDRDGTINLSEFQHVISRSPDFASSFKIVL
# assay.method.text: FP assay, 1536-well qHTS format (primary and confirmatory screen)
# Type: binding
# run.conditions: confirmatory screen, qHTS curve class; negative sign = inhibitory curve
Give only the figure.

INSERT INTO assay_data (compound, tgt, property_label, measured_value) VALUES
  ('CCN(CC)C(=S)SSC(=S)N(CC)CC [NCGC00016000-13, disulfiram, reference compound]', 'CIB1 and αIIb interaction (CIB1-GST : F-αIIb peptide) (Homo sapiens, UniProt Q99828)', 'CONFIRMATORY SCREEN Curve Class', -1.2),
  ('C=CCNc1oc(-c2ccc(-c3ccccc3)cc2)nc1C#N.O=C(O)C(F)(F)F [NCGC00183413-01]', 'CIB1 and αIIb interaction (CIB1-GST : F-αIIb peptide) (Homo sapiens, UniProt Q99828)', 'CONFIRMATORY SCREEN Curve Class', -1.2),
  ('O=C1C=CC(=O)N1c1cccc(Br)c1 [NCGC00373120-01]', 'CIB1 and αIIb interaction (CIB1-GST : F-αIIb peptide) (Homo sapiens, UniProt Q99828)', 'CONFIRMATORY SCREEN Curve Class', -1.2),
  ('O=C(O)c1cccc(CN2C(=O)/C(=C(\c3ccccc3)c3ccc(Cl)cc3)c3ccccc32)c1 [NCGC00378823-01]', 'CIB1 and αIIb interaction (CIB1-GST : F-αIIb peptide) (Homo sapiens, UniProt Q99828)', 'CONFIRMATORY SCREEN Curve Class', -2.2),
  ('CCCCCc1c2c(cc(O)c1C(=O)O)OC(=O)c1c(cc(OC)cc1C(=O)CCCC)O2.O=C(O)C(F)(F)F [NCGC00095570-05]', 'CIB1 and αIIb interaction (CIB1-GST : F-αIIb peptide) (Homo sapiens, UniProt Q99828)', 'CONFIRMATORY SCREEN Curve Class', -1.2);

Lab note: need CONFIRMATORY SCREEN Curve Class for C=CCNc1oc(-c2cccc3ccccc23)nc1C#N.O=C(O)C(F)(F)F [NCGC00068824-04] on CIB1 and αIIb interaction (CIB1-GST : F-αIIb peptide) (Homo sapiens, UniProt Q99828), anyone have it?
-1.2

* * *

# maps each entry to its CONFIRMATORY SCREEN Efficacy (%)
# tgt: CIB1 and αIIb interaction (CIB1-GST : F-αIIb peptide) (Homo sapiens, UniProt Q99828)
# Construct: made in house; host or cells: BL-21 plus RIL cells (E. coli)
# assay.method.text: FP assay, 1536-well qHTS format (primary and confirmatory screen)
# Assay type: binding
# run.conditions: confirmatory screen; negative = inhibition
The reply should contain only the number, in %.

Worked examples follow.
INSERT INTO assay_data (molecule, property_label, reading_unit, measured_value) VALUES
  ('CCCCCCCCOc1ccccc1C(=O)Nc1ccc(C(=O)OCC[N+](C)(CC)CC)cc1.[Br-] [NCGC00163507-02]', 'CONFIRMATORY SCREEN Efficacy (%)', '%', -60),
  ('NS(=O)(=O)c1ccc(Cc2c(-c3cccc(-c4ccccc4F)c3)nn(-c3nc(C(=O)O)cs3)c2O)cc1.O=C(O)C(F)(F)F [NCGC00356464-01]', 'CONFIRMATORY SCREEN Efficacy (%)', '%', -74),
  ('Cc1cc(=O)oc2cc(SC3=NS(=O)(=O)c4ccccc43)ccc12 [NCGC00189497-01]', 'CONFIRMATORY SCREEN Efficacy (%)', '%', -39),
  ('Brc1c(Br)c(Br)c2[nH]nnc2c1Br [NCGC00092352-04, 4,5,6,7-tetrabromobenzotriazole, reference compound]', 'CONFIRMATORY SCREEN Efficacy (%)', '%', -43);

What value of CONFIRMATORY SCREEN Efficacy (%) has been reported for the following molecule? CC(C)(C)c1ccc(SC2=NS(=O)(=O)c3ccccc32)cc1 [NCGC00189495-01]
-62

Input COC(=O)c1ccc2c(c1)S(=O)(=O)N=C2Sc1cc(C)ccc1C [NCGC00238687-01]
-59
